Below, each entry is listed alongside its reported IC50.
target system: Sterol 14-alpha demethylase (Trypanosoma cruzi (strain CL Brener), UniProt Q7Z1V1)
Sequence (Q7Z1V1 whole entry): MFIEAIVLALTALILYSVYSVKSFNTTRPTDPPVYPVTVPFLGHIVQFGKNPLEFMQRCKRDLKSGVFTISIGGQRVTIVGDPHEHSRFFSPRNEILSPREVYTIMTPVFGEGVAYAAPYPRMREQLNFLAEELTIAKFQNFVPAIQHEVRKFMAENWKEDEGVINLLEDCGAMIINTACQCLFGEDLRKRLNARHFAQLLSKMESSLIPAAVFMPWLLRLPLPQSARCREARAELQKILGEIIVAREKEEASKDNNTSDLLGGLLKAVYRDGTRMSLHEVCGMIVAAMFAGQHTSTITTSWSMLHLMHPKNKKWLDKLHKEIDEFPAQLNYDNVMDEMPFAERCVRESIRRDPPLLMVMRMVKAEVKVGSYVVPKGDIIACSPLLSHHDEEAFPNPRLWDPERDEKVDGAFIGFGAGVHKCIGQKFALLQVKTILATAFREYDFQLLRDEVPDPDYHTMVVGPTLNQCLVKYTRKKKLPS
test details: GSK_TCAKS: pIC50 CYP51 from Trypanosoma cruzi.
Answer with a number only, understood to be in µM.

{"columns": ["compound", "target system", "measure unit", "IC50"],
 "data": [
  ["O=C(CSc1nnc(-c2ccc3c(c2)OCO3)o1)N(Cc1ccco1)CC(F)(F)F", "Sterol 14-alpha demethylase (Trypanosoma cruzi (strain CL Brener), UniProt Q7Z1V1)", "µM", 25.1]
]}

Input CC(C)n1c(-c2nonc2N)nc2cccc(OCCN3CCCC3)c21 . Output IC50: 39.8

Input Cn1nccc1NC(=O)Cn1ccc(-c2ccncc2)n1 . Output IC50: 6.31

Input O=C(Nc1nc2ccccc2[nH]1)c1ccc2[nH]cnc2c1 . Output IC50: 5.01

Input CN(C)CCN(C)Cc1ccc(Cl)cc1NS(=O)(=O)c1ccc(Cl)c(Cl)c1 . Output IC50: 31.6

Input Cc1ccc(Nc2nc(N)nc(CNC(c3nc4ccccc4[nH]3)C(C)C)n2)cc1 (stereo not drawn) . Output IC50: 50.1

Input N#Cc1ccc(S(=O)(=O)N2CCN(Cc3cccc(-c4ccncc4)c3)CC2)cc1 . Output IC50: 0.0794

Input O=C1COC(c2ccccc2)(c2ccccc2)CN1C1CCN(Cc2ccc(-n3ccnc3)cc2)CC1 . Output IC50: 0.0794

Input O=C(NC1C(=O)N(c2ccccc2)C1c1cccnc1)c1ccc(Cl)s1 (stereo not drawn) . Output IC50: 0.2

Input O=C(NCCc1cccnc1)c1ccc(-c2ccccc2F)o1 . Output IC50: 0.0631

Input Cc1nn(C2CCS(=O)(=O)C2)c(C)c1CN(C)C(=O)C=Cc1sc2ccccc2c1Cl (stereo not drawn) . Output IC50: 0.0316

* * *

Tested on: Trypanosoma cruzi
test details: GSK_TCAKS: pIC50 Trypanosoma cruzi Imaging: Infected Cells. […] Cells were then washed once with PBS before infection. T. cruzi trypomastigotes, collected at days 5 to 8 after infection from LLC-MK2 parasite infected cultures, were allowed to swim out for 4h at 37C from a centrifuged pellet (2,500 rpm/10 min/room temperature). Trypomastigotes were then collected and counted in a CASY Cell Counter. Trypomastigotes, in supplemented DMEM, were added to H9c2 cultures in a multiplicity of infection of 1 and incubated for 18 h. Cells were washed once with PBS before incubation of the infected H9c2 monolayer with trypsin (Life-Technologies) to detach cells from the flask. Cells were counted in a CASY Cell Counter using a 150 um capillary and their density set at 5 * 10^4 cells per mL in supplemented assay DMEM. Infected H9c2 were dispensed into 384-well poly-lysine coated assay plates at 50uL per well using a Multidrop Combi dispenser. After seeding them, the plates were incubated at 37C, 5% CO2 for 72h. Cultures were then fixed and stained by addition of 50 uL of a solution containing 8% formaldehyde and 4 uM DRAQ5 DNA dye (BioStatus, UK) per well. […] Five images were collected per well for reliable statistical analysis. Automated image analysis was performed with a script developed on Acapella High Content Imaging and Analysis Software (PerkinElmer). Output: percentage of infected cells per well as a second infection marker.
Format: functional, organism-based, Rattus norvegicus
condition summary: H9c2, 4 h
pIC50: −log10 of the molar value.
Grouping rule (pIC50): lo: < 5; med: ≥ 5 and < 6; hi: ≥ 6

{"columns": ["compound", "label value"],
 "data": [
  ["CC(C)n1c(-c2nonc2N)nc2cccc(OCCN3CCCC3)c21", "lo"]
]}

Would you mind sorting CC(c1ccccn1)N(C)Cc1nc2ccccc2n1C(C)C (stereo unspecified) into the appropriate category?
med

Would you mind sorting Cc1ccc2ccc(C(Nc3ccccn3)c3cccnc3)c(O)c2n1 (stereo unspecified) into the appropriate category?
hi

Would you mind sorting CCC(=O)Nc1ccc(C(=O)Nc2ccccc2-c2ccccc2)cc1 into the appropriate category?
hi

Would you mind sorting COc1cc(NC(=O)Nc2cccc(CNC(=O)OC3CCCCC3)c2)ccc1-c1cnco1 into the appropriate category?
lo

Would you mind sorting CCc1cccc(CC)c1-n1c(SCC(=O)N2CC(=O)Nc3ccccc32)nnc1-c1cccnc1 into the appropriate category?
lo

Would you mind sorting Cc1nn2c(=O)c3c([nH]c2c1-c1ccc(Br)cc1)CCCC3 into the appropriate category?
med

* * *

Below, each entry is listed alongside its reported log10 IC50.
Test system: Leishmania donovani
test details: GSK_TCAKS: pIC50 Leishmania donovani Imaging: Infected Macrophages. Assay plates (384-well) were prepared by adding 250nL of compound to each well. For single shot assay, the final compound concentration was 5 uM. […] Automated image analysis was performed with a script developed on Acapella High Content Imaging and Analysis Software (PerkinElmer). Output: Percent of infected macrophage cells were reported for each well.
Format: functional, organism-based, Homo sapiens
condition summary: THP-1
Response schema: value (number) is log10 of IC50 in units of µM.

Solved cases (10 shown):
{"columns": ["compound", "target system", "numeric readout"],
 "data": [
  ["Cc1cc2nc(CN(C)Cc3ncccc3C)[nH]c2cc1C", "Leishmania donovani", -0.20],
  ["CN(C)CCOc1ccc(N2CCN(S(=O)(=O)c3ccc(Cl)cc3)CC2)cc1", "Leishmania donovani", 1.50],
  ["CCOc1cc(NCCCN2CCN(C)CC2)c2ncccc2c1", "Leishmania donovani", 0.10],
  ["Cn1ccnc1-c1nc(NCc2ccccc2Cl)cc(C2CC2)n1", "Leishmania donovani", -0.20],
  ["Cc1ccc2ccc(C(Nc3ccccn3)c3cccnc3)c(O)c2n1 (configuration not stated)", "Leishmania donovani", 1.10],
  ["COc1ccc(Oc2ccc(C(C)N(C)c3ncc4c(N)nc(N)nc4n3)cc2)cc1 (configuration not stated)", "Leishmania donovani", -1.00],
  ["Cc1cc(Br)cc(C(=O)c2c(C(C)C)c(=O)[nH]c(=O)n2Cc2ccnc(N)c2)c1", "Leishmania donovani", 1.50],
  ["N#Cc1ccc(Br)cc1[N+](=O)[O-]", "Leishmania donovani", 1.30],
  ["Cc1nc2c(-c3nc(-c4ccccc4N)n[nH]3)cccn2c1C", "Leishmania donovani", 0.20],
  ["COc1ccc2ncc(=O)n(CCN3CCC(NCc4ccc(-c5cccs5)cc4)CC3)c2n1", "Leishmania donovani", 0.50]
]}

Input CCS(=O)(=O)c1cccc(C(=O)Nc2nc(-c3ccccn3)cs2)c1 . Output log10 IC50: 0.60

Input Oc1cc(CSc2ccc(Cl)cc2)nc(-c2ccccn2)n1 . Output log10 IC50: 0.70

Input COc1ccnc2[nH]cc(-c3cc(C(=O)N[C@H](CO)c4ccccc4)co3)c12 . Output log10 IC50: 0.90

* * *

Below, each entry is listed alongside its reported IC50.
System: NIH3T3
test details: GSK_TCAKS: pIC50 NIH 3T3 cell line viability assay using luminiscence. Tissue culture surface treated assay plates (1536-well) were used. […] The 100% cells survival control was determined exposing the host-cells to a 0.5% DMSO concentration, whereas the 100% toxicity control was achieved by seeding the cells in presence of Amphotericin B at 50uM. Plates were incubated for four days at 37C, 5% CO2. The assay readout was developed by addition of 5uL of CellTiter-Glo Reagent following the manufacturer's instructions. Luminiscence was measured using a ViewLux.
Format: functional, cell-based
condition summary: Mus musculus, NIH3T3, 96 h
Answer with a number only, understood to be in µM.

{"columns": ["molecule", "numeric readout"],
 "data": [
  ["N#Cc1cccc(CN2CCC(N(Cc3cccnc3)C(=O)c3cc(F)c(F)cc3F)CC2)c1", 20],
  ["O=[N+]([O-])c1cccc(Nc2cncc(-c3ccccc3CO)c2)c1", 39.8]
]}

Input Clc1ccc(C(CC2CCCCO2)Cn2cncn2)c(Cl)c1 (stereo not given) . Output IC50: 39.8

Input O=C(N1CCc2ccccc2CC1)C1(C(=O)N2CCC(n3c(=O)[nH]c4ncccc43)CC2)CC1 . Output IC50: 39.8

Input Cc1cccnc1CN1CCN(CCCOc2ccc(-c3ccc(C(N)=O)cc3)cc2)CC1 . Output IC50: 6.31

Input CCCc1nc2nc(N)nc(N)c2cc1CC . Output IC50: 31.6

Input COc1ccc(C(C)N(C)c2ncc3c(N)nc(N)nc3n2)cc1F (stereo not given) . Output IC50: 39.8

* * *

test details: GSK_TCAKS: pIC50 HepG2 human cell line viability assay using luminiscence. […] Seeding density was checked to ensure that new mono-layers were not more than 50% confluent at the time of harvesting. Cell suspension was added to 500 mL of the same medium at a final density of 1.2 * 10^5 cells/mL. This cell suspension was dispensed (25 uL, 3000 cells per well) into 384-well clear-bottom plates using a Multidrop Combi dispenser. Prior to addition of the cell suspension, the screening compounds (250 nL) were pre-dispensed into the plates with an Echo liquid handler. Plates were incubated for 48 h at 37C, 5% CO2. After incubation, plates equilibrated at room temperature for 30 min before proceeding to develop the luminescent signal. The signal developer, CellTiter-Glo Reagent, was allowed to equilibrate at room temperature for 30 min and added to the plates (25uL per well) using a Multidrop Combi dispenser. Plates were left for 10 min at room temperature for stabilization and then read using a ViewLux.
Assay type: toxicity, cell-based
reported property: IC50 at 48 h

Input O=C(NCCc1csc(-c2ccc(F)cc2)n1)c1cccs1 . Output IC50 at 48 h: > 100 µM

Input O=C(NCc1ccncc1)c1ccccc1N1CCCN(C(=O)Cc2ccc(F)c(F)c2)CC1 . Output IC50 at 48 h: > 100 µM

Input Cc1cc(C)nc(N2CCC(N(Cc3cccnc3)C(=O)c3cccc(C#N)c3)CC2)n1 . Output IC50 at 48 h: > 100 µM

Input CNc1nc(C)nc(N2CCc3cc(C(=O)NCc4ccc(-c5cc[nH]n5)cc4Cl)ccc32)n1 . Output IC50 at 48 h: > 100 µM

Input Cc1nn(-c2nc3ccccc3s2)c2c1C(c1ccc(OCC(N)=O)cc1)SCC(=O)N2 (stereo not given) . Output IC50 at 48 h: > 100 µM
